These data points were gathered from patent US11498896B2.

biological target: human D2R/β-arrestin (Homo sapiens (Human)); experiment: cell-based; conditions: β-arrestin Antagonist, CHO-K1 cells expressing human D2R/β-arrestin; antagonist mode, quinpirole 130 nM
Sequence (P14416 whole entry): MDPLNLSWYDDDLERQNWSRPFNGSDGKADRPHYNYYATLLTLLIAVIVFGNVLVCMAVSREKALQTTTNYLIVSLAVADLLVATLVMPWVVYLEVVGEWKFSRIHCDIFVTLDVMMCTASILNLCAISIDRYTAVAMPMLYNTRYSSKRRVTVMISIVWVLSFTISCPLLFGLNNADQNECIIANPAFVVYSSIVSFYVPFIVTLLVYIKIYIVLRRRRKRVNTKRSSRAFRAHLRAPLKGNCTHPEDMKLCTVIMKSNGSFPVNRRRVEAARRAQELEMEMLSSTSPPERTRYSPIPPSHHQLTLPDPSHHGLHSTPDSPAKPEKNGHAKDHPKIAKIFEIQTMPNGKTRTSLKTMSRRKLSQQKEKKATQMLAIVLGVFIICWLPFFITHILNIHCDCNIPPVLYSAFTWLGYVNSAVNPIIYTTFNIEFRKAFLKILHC
pIC50: −log10 of the molar value.
The reader will find reported pIC50 values listed item by item below.

compound | pIC50
CC1(Oc2ccc(Cl)cc2)CCN(CCOc2cc(F)ccc2C(F)(F)F)CC1 | 6.00 to 7.00
CC1(O)CCN(CCOc2ccccc2C(F)(F)F)C1 (stereo not drawn) | 5.00 to 6.00
CC1(Oc2ccc(Cl)cc2)CCN(CCn2cccc(C(F)(F)F)c2=O)CC1 | < 4.52
Cc1ccccc1OC1(C)CCN(CCOc2ccccc2)C1 (stereo not drawn) | 5.00 to 6.00
Cc1cccc(OCCN2CCC(C)(Oc3ccc(Cl)cc3)C2)c1 (stereo not drawn) | 5.00 to 6.00
CC1(Oc2ccc(Cl)cc2)CCN(CCOc2ccc3ncccc3c2)C1 (stereo not drawn) | 5.00 to 6.00
C[C@]1(O)C[C@H]2CC[C@@H](C1)N2CCOc1ccccc1C(F)(F)F | 6.00 to 7.00
CC1(Oc2ccccc2)CCN(CCn2cccc(C(F)(F)F)c2=O)CC1 | < 4.52
C#CC1(Oc2ccc(Cl)cc2)CCN(CCOc2ccccc2C(F)(F)F)CC1 | 5.00 to 6.00
